B1: Neutrophil cytosol factor 2, residues 456 to 514; numbered along this chain, P19878 (parent)
chain: LKKGSQVEALFSYEATQPEDLEFQEGDIILVLSKVNEEWLEGECKGKVGIFPKVFVEDC

# Variants of: B1
# Assay Explanation: abundance fitness (aPCA) (normalised: wild type 0, dead -1); higher = more abundant; growth selection in yeast, the domain comes from the species named
# Experimental Parameters: Homo sapiens
Collected abundance fitness values appear next to each entry.
Value Type: abundance fitness

>  <Sequence Input>
LKKGSQVEALFSYEATQPEDLEFQEGDIILVLSKVNEEWLEGECKGKVGIFPKVFVEIC [D58I]

>  <Value Type>
abundance fitness

>  <Test Result>
-0.268

$$$$
>  <Sequence Input>
LKKGSQVEALFSYEATQDEDLEFQEGDIILVLSKVNEEWLEGECKGKVGIFPKVFVEDC [P18D]

>  <Value Type>
abundance fitness

>  <Test Result>
0.315

$$$$
>  <Sequence Input>
LKKGSQVEALYSYEATQPEDLEFQEGDIILVLSKVNEEWLEGECKGKVGIFPKVFVEDC [F11Y]

>  <Value Type>
abundance fitness

>  <Test Result>
-0.191

$$$$
>  <Sequence Input>
LKKGSQVEALFSYEATQPEDLEFQEGDIILVLSKVNEEWLEGECKGKCGIFPKVFVEDC [V48C]

>  <Value Type>
abundance fitness

>  <Test Result>
-0.392

$$$$
>  <Sequence Input>
LKKGSQVEALFSYEDTQPEDLEFQEGDIILVLSKVNEEWLEGECKGKVGIFPKVFVEDC [A15D]

>  <Value Type>
abundance fitness

>  <Test Result>
-0.73

$$$$
>  <Sequence Input>
LKKGSQVEALFSYEATQPEDLEFQEGDIIIVLSKVNEEWLEGECKGKVGIFPKVFVEDC [L30I]

>  <Value Type>
abundance fitness

>  <Test Result>
0.032

$$$$
>  <Sequence Input>
LKKGSQVEALFSYEATQPEDLEFQGGDIILVLSKVNEEWLEGECKGKVGIFPKVFVEDC [E25G]

>  <Value Type>
abundance fitness

>  <Test Result>
-0.201

$$$$
>  <Sequence Input>
LKKGSQVEALFSYEATQPGDLEFQEGDIILVLSKVNEEWLEGECKGKVGIFPKVFVEDC [E19G]

>  <Value Type>
abundance fitness

>  <Test Result>
0.598

$$$$
>  <Sequence Input>
LKKGSQVEALFSYEATQHEDLEFQEGDIILVLSKVNEEWLEGECKGKVGIFPKVFVEDC [P18H]

>  <Value Type>
abundance fitness

>  <Test Result>
-0.537

$$$$
>  <Sequence Input>
LKKGSQVEALFSYEATQPEDLEFQIGDIILVLSKVNEEWLEGECKGKVGIFPKVFVEDC [E25I]

>  <Value Type>
abundance fitness

>  <Test Result>
-0.68

$$$$
>  <Sequence Input>
LKKGSVVEALFSYEATQPEDLEFQEGDIILVLSKVNEEWLEGECKGKVGIFPKVFVEDC [Q6V]

>  <Value Type>
abundance fitness

>  <Test Result>
0.538

$$$$
>  <Sequence Input>
LKKGSQVEALFSYEATQPEDLEFQEGDIILVLSKVPEEWLEGECKGKVGIFPKVFVEDC [N36P]

>  <Value Type>
abundance fitness

>  <Test Result>
-1.03

$$$$
>  <Sequence Input>
LKKGSQVEALFSYEATQPEDLEFQEGDIILVLSKVNEEWLEGECKGKVGIFPKKFVEDC [V54K]

>  <Value Type>
abundance fitness

>  <Test Result>
0.663

$$$$
>  <Sequence Input>
LKKGGQVEALFSYEATQPEDLEFQEGDIILVLSKVNEEWLEGECKGKVGIFPKVFVEDC [S5G]

>  <Value Type>
abundance fitness

>  <Test Result>
-1.17

$$$$
>  <Sequence Input>
LKKGSQVEALFSYEATQPEDLEFQEGDIILVLSKVNEEWLEGECKGKVGIFPKVFWEDC [V56W]

>  <Value Type>
abundance fitness

>  <Test Result>
-0.46

$$$$
>  <Sequence Input>
LKKGSQVEALFSYEATQPEDLEFQEGDIILVLSKVNEAWLEGECKGKVGIFPKVFVEDC [E38A]

>  <Value Type>
abundance fitness

>  <Test Result>
-0.329

$$$$
>  <Sequence Input>
LKKGSQVEALFSYEATQPEDLEFAEGDIILVLSKVNEEWLEGECKGKVGIFPKVFVEDC [Q24A]

>  <Value Type>
abundance fitness

>  <Test Result>
-0.186

$$$$
>  <Sequence Input>
LKKGSQVEALFSYEATQPEDLEFQEGDIILVLSKVNEEWLEGECKGKVRIFPKVFVEDC [G49R]

>  <Value Type>
abundance fitness

>  <Test Result>
-0.758

$$$$
>  <Sequence Input>
LKKGSQVEALFSYEATQPEDLEFQEGDIILVLSKVNEEWLEGECKGRVGIFPKVFVEDC [K47R]

>  <Value Type>
abundance fitness

>  <Test Result>
-0.118

$$$$
>  <Sequence Input>
LKKGSQVEALFSYEATQPEDLEFQEGDIILVLSKVKEEWLEGECKGKVGIFPKVFVEDC [N36K]

>  <Value Type>
abundance fitness

>  <Test Result>
0.093

$$$$
>  <Sequence Input>
LKKGSQVEALFSYEATQPEDLEFQEGDIILTLSKVNEEWLEGECKGKVGIFPKVFVEDC [V31T]

>  <Value Type>
abundance fitness

>  <Test Result>
-0.482

$$$$
>  <Sequence Input>
LKKGSQVEALFSYEATQPEDLEFQEGDIILVLSKVNEEWLEGERKGKVGIFPKVFVEDC [C44R]

>  <Value Type>
abundance fitness

>  <Test Result>
-0.336

$$$$
>  <Sequence Input>
LKKGSQVEALFSYELTQPEDLEFQEGDIILVLSKVNEEWLEGECKGKVGIFPKVFVEDC [A15L]

>  <Value Type>
abundance fitness

>  <Test Result>
-0.827

$$$$
>  <Sequence Input>
LKKGSAVEALFSYEATQPEDLEFQEGDIILVLSKVNEEWLEGECKGKVGIFPKVFVEDC [Q6A]

>  <Value Type>
abundance fitness

>  <Test Result>
-0.717

$$$$
>  <Sequence Input>
LKKGSQVEALFSYEATQPEDLEFQEGDIILVLSKVNEEWLEGECDGKVGIFPKVFVEDC [K45D]

>  <Value Type>
abundance fitness

>  <Test Result>
0.065

$$$$
>  <Sequence Input>
LKKGSQVEALFSYEATQPEDLEWQEGDIILVLSKVNEEWLEGECKGKVGIFPKVFVEDC [F23W]

>  <Value Type>
abundance fitness

>  <Test Result>
-0.889

$$$$
>  <Sequence Input>
LKIGSQVEALFSYEATQPEDLEFQEGDIILVLSKVNEEWLEGECKGKVGIFPKVFVEDC [K3I]

>  <Value Type>
abundance fitness

>  <Test Result>
0.207

$$$$
>  <Sequence Input>
LKKGSQVEALFSYEATQPEDLEFQEGDIILVLSKVNEEWLEGEPKGKVGIFPKVFVEDC [C44P]

>  <Value Type>
abundance fitness

>  <Test Result>
-0.583

$$$$
>  <Sequence Input>
LKKGSQVEALFSYEATQPEDLEFQEGDIILVLSKVNEEWLEGETKGKVGIFPKVFVEDC [C44T]

>  <Value Type>
abundance fitness

>  <Test Result>
-0.467

$$$$
>  <Sequence Input>
LGKGSQVEALFSYEATQPEDLEFQEGDIILVLSKVNEEWLEGECKGKVGIFPKVFVEDC [K2G]

>  <Value Type>
abundance fitness

>  <Test Result>
-0.307

$$$$
>  <Sequence Input>
LKKGSQVEALFSYEATQPEDLEFQEGDIILVLSKVNEETLEGECKGKVGIFPKVFVEDC [W39T]

>  <Value Type>
abundance fitness

>  <Test Result>
-0.735

$$$$
>  <Sequence Input>
LKKGSQVEALFSYEATQPEDLEFQEGDIILVLSKVNEEWLEGWCKGKVGIFPKVFVEDC [E43W]

>  <Value Type>
abundance fitness

>  <Test Result>
-0.435

$$$$
>  <Sequence Input>
LKKGSQVEALFSYEATQPEDLEFQEGDIILVLFKVNEEWLEGECKGKVGIFPKVFVEDC [S33F]

>  <Value Type>
abundance fitness

>  <Test Result>
-0.291

$$$$
>  <Sequence Input>
LKKGSQVEALFSYEATQPEDLEFQEGDIILVLSKVNEEWLEGECKGKVGIFPKVFVEDH [C59H]

>  <Value Type>
abundance fitness

>  <Test Result>
-0.361

$$$$
>  <Sequence Input>
LFKGSQVEALFSYEATQPEDLEFQEGDIILVLSKVNEEWLEGECKGKVGIFPKVFVEDC [K2F]

>  <Value Type>
abundance fitness

>  <Test Result>
0.093

$$$$
>  <Sequence Input>
LKKGSHVEALFSYEATQPEDLEFQEGDIILVLSKVNEEWLEGECKGKVGIFPKVFVEDC [Q6H]

>  <Value Type>
abundance fitness

>  <Test Result>
0.427

$$$$
>  <Sequence Input>
LKKGSQVEALFSYEATQPEDLEFQPGDIILVLSKVNEEWLEGECKGKVGIFPKVFVEDC [E25P]

>  <Value Type>
abundance fitness

>  <Test Result>
-0.89

$$$$
>  <Sequence Input>
LKKGSQVEALFSYEATQPEDLEFQEGDIILVLSKVNEEWLGGECKGKVGIFPKVFVEDC [E41G]

>  <Value Type>
abundance fitness

>  <Test Result>
-0.157

$$$$
>  <Sequence Input>
LKKGSQVEALFSYEATQPEDLEFQEGDIILVLSKVNEEWLEGICKGKVGIFPKVFVEDC [E43I]

>  <Value Type>
abundance fitness

>  <Test Result>
-0.567

$$$$
>  <Sequence Input>
LKKGSQVEALFSYEATQPPDLEFQEGDIILVLSKVNEEWLEGECKGKVGIFPKVFVEDC [E19P]

>  <Value Type>
abundance fitness

>  <Test Result>
-1.06

$$$$
>  <Sequence Input>
LKKGSQVEALFSYEATQPEDLEFQEGDIIQVLSKVNEEWLEGECKGKVGIFPKVFVEDC [L30Q]

>  <Value Type>
abundance fitness

>  <Test Result>
0.5

$$$$
>  <Sequence Input>
LKKGSQVEALFSYEATQPEDLEFQEGDIILVLSKVNEEWLEGEDKGKVGIFPKVFVEDC [C44D]

>  <Value Type>
abundance fitness

>  <Test Result>
-0.557

$$$$
>  <Sequence Input>
LKKGKQVEALFSYEATQPEDLEFQEGDIILVLSKVNEEWLEGECKGKVGIFPKVFVEDC [S5K]

>  <Value Type>
abundance fitness

>  <Test Result>
0.309

$$$$
>  <Sequence Input>
LKGGSQVEALFSYEATQPEDLEFQEGDIILVLSKVNEEWLEGECKGKVGIFPKVFVEDC [K3G]

>  <Value Type>
abundance fitness

>  <Test Result>
-0.714

$$$$
>  <Sequence Input>
LKKGSQVEALFSYEATQPEDLEFQEGDIILVLSKVNEEWLEGECKTKVGIFPKVFVEDC [G46T]

>  <Value Type>
abundance fitness

>  <Test Result>
-0.904

$$$$
>  <Sequence Input>
LKKGSQVEALFSYEATQPEDLEFQEGDIILVLSKVNEEWLEGECCGKVGIFPKVFVEDC [K45C]

>  <Value Type>
abundance fitness

>  <Test Result>
-0.191

$$$$
